- test.protocol: Cytotoxicity against human HL-60(TB) cells assessed as growth inhibition at 10 uM after 48 hrs by SRB assay relative to control
- Assay type: functional
- reported.conditions: HL-60, 48 h, read-out: GI
measure.name: inhibition of growth at 10 µM (%)

smiles_string=COc1ccc(CN2c3ccccc3Oc3ccccc32)cc1F measure_name="inhibition of growth at 10 µM" reading_unit=% result_value=46
smiles_string=COc1ccc(CN2c3ccccc3Sc3ccccc32)cc1F measure_name="inhibition of growth at 10 µM" reading_unit=% result_value=100
smiles_string=COc1ccc(CN2c3ccccc3Sc3ccccc32)cc1O measure_name="inhibition of growth at 10 µM" reading_unit=% result_value=79
smiles_string=COc1ccc(CN2c3ccccc3Oc3ccccc32)cc1O measure_name="inhibition of growth at 10 µM" reading_unit=% result_value=84
smiles_string=COc1ccc(CN2c3ccccc3Sc3ccccc32)c(F)c1 measure_name="inhibition of growth at 10 µM" reading_unit=% result_value=100
smiles_string=COc1ccc(CN2c3ccccc3CCc3ccccc32)cc1F measure_name="inhibition of growth at 10 µM" reading_unit=% result_value=100
smiles_string=COc1ccc(CN2c3ccccc3Sc3ccccc32)c(C(F)(F)F)c1 measure_name="inhibition of growth at 10 µM" reading_unit=% result_value=76
